Reference for the values: ChEMBL document CHEMBL4680218

# test-system: Proteasome Macropain subunit MB1 (Homo sapiens, UniProt P28074)
# Sequence (P28074 whole entry): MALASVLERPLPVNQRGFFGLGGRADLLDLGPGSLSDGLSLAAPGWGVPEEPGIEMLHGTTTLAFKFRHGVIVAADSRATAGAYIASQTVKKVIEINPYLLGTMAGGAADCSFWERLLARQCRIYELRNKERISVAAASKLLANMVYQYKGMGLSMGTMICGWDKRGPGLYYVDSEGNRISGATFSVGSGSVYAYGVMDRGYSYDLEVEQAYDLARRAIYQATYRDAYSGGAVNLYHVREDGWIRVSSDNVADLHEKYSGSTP
# assay-comment: Inhibition of chymotrypsin-like activity of human 20S proteasome beta5 subunit using Suc-LLVY-Glo as substrate incubated for 2 hrs followed by substrate addition and measured for 10 mins by bioluminescent assay
Exercise: state measured log10 IC50 for each of the compounds provided.
Values below are the log10 of the recorded IC50, with µM as the unit.

Quick one: give me log10 IC50 for each item below, same order please.
1. COC[C@H](NC(=O)[C@H](CC(=O)NCC(C)C)NS(=O)(=O)c1ccc(C)cc1)C(=O)N[C@@H](CC(C)C)C(=O)c1ccco1
2. COC[C@H](NC(=O)[C@H](Cc1ccccc1)NC(=O)OC(C)(C)C)C(=O)N[C@@H](CC(C)C)C(=O)c1ccco1
3. COC[C@H](NC(=O)[C@H](CC(=O)NCC(C)(C)C)NS(=O)(=O)c1ccc(C)cc1)C(=O)N[C@@H](CC(C)C)C(=O)c1ccco1
4. CC(=O)N[C@@H](Cc1ccccc1)C(=O)N[C@@H](Cc1ccc(O)cc1)C(=O)N[C@@H](CC(C)C)C(=O)c1ccco1
5. Cc1ccc(S(=O)(=O)N[C@@H](Cc2ccccc2)C(=O)N[C@@H](Cc2ccc(O)cc2)C(=O)N[C@@H](CC(C)C)C(=O)c2ccco2)cc1
6. Cc1ccc(S(=O)(=O)N[C@@H](CC(=O)NCC(C)(C)C)C(=O)N[C@@H](C)C(=O)N[C@@H](CC(C)C)C(=O)c2ccco2)cc1
7. COc1ccc(C[C@H](NC(=O)c2cnccn2)C(=O)N[C@@H](Cc2ccc(O)cc2)C(=O)N[C@@H](CC(C)C)C(=O)c2ccco2)cc1
8. Cc1ccc(S(=O)(=O)N[C@@H](CC(=O)NCC(C)C)C(=O)N[C@@H](C)C(=O)N[C@@H](CC(C)C)C(=O)c2ccco2)cc1

1: -0.17; 2: 1.16; 3: -0.74; 4: 1.14; 5: 0.37; 6: 0.75; 7: 0.92; 8: 0.49

----------
# assay-comment: Clearance in Sprague-Dawley rat at 4 mg/kg, iv measured up to 48 hrs by LC-MS/MS analysis
# condition-summary: in vivo
value-kind: clearance at 48 h (mL/min/kg)
One number for each entry, in mL/min/kg.

Item CC(C)C[C@H](NC(=O)[C@H](CCc1ccccc1)NC(=O)CN1CCOCC1)C(=O)N[C@@H](Cc1ccccc1)C(=O)N[C@@H](CC(C)C)C(=O)[C@@]1(C)CO1 [CARFILZOMIB] has what recorded clearance at 48 h?
195

----------
# assay-comment: in vivo
# condition-summary: Sprague-Dawley, rat, iv, 4 mg/kg
# Description: AUC(0 to t) in Sprague-Dawley rat at 4 mg/kg, iv measured up to 48 hrs by LC-MS/MS analysis
value-kind: AUC(0-t) at 48 h
Note: state the figure and append the unit.

Item CC(C)C[C@H](NC(=O)[C@H](CCc1ccccc1)NC(=O)CN1CCOCC1)C(=O)N[C@@H](Cc1ccccc1)C(=O)N[C@@H](CC(C)C)C(=O)[C@@]1(C)CO1 has what recorded AUC(0-t) at 48 h?
343 ng·h/mL

----------
# test-system: Proteasome Macropain subunit MB1 (Homo sapiens)
# assay-comment: Inhibition of chymotrypsin-like activity of human 20S proteasome beta5 subunit using Suc-LLVY-Glo as substrate incubated for 2 hrs followed by substrate addition and measured for 10 mins by bioluminescent assay
value-kind: log10 of IC50 (log10 of the value in µM)
Values below are the log10 of the recorded IC50, with µM as the unit.

Use the examples below as a reference point.
{"columns": ["smiles-input", "log10 of IC50"],
 "data": [
  ["Cc1ccc(S(=O)(=O)N[C@@H](CC(=O)NCCC(C)C)C(=O)N[C@@H](C)C(=O)N[C@@H](CC(C)C)C(=O)c2ccco2)cc1", 0.80],
  ["CC(C)C[C@H](NC(=O)[C@H](C)NC(=O)[C@H](Cc1ccccc1)NC(=O)OC(C)(C)C)C(=O)c1ccco1", 1.66]
]}

Quick one: give me log10 of IC50 for each item below, same order please.
1. COC[C@H](NC(=O)[C@H](Cc1ccccc1)NC(=O)OCc1ccccc1)C(=O)N[C@@H](CC(C)C)C(=O)c1ccco1
2. COc1ccc(C[C@H](NS(=O)(=O)c2ccc(C)cc2)C(=O)N[C@@H](Cc2ccc(O)cc2)C(=O)N[C@@H](CC(C)C)C(=O)c2ccco2)cc1
3. COc1ccc(C[C@H](NC(=O)[C@H](Cc2ccccc2)NC(=O)c2ccccc2[N+](=O)[O-])C(=O)N[C@@H](CC(C)C)C(=O)c2ccco2)cc1
4. COc1ccc(C[C@H](NC(=O)OC(C)(C)C)C(=O)N[C@@H](Cc2ccc(Cl)cc2)C(=O)N[C@@H](CC(C)C)C(=O)c2ccco2)cc1

1: 0.62; 2: -0.27; 3: 0.86; 4: 1.70

What is its log10 of IC50 for Proteasome Macropain subunit MB1 (Homo sapiens)? Entry: COC[C@H](NC(=O)[C@H](Cc1ccc(OC)cc1)NC(=O)OC(C)(C)C)C(=O)N[C@@H](CC(C)C)C(=O)c1ccco1
0.77
